Measured Imax βarr1 (maximum observed inhibitory effect) by item
Target: CXCR2 (Homo sapiens, UniProt P25025)
Construct: expressed in transfected cells
Assay: NanoBRET β-arrestin1 recruitment inhibition assay (NanoLux) in HEK293A cells
Type: cell-based
Settings: CXCL2 at EC80; normalized to Imax of navarixin = 100%; n = 3
Readout label: Imax βarr1 (maximum observed inhibitory effect) (%)

molecule="CC(CCO)Nc1nc(SCc2cccc(F)c2F)nc2[nH]nnc12 (stereo not drawn) [MVH-33]" assay_result=92.98
molecule="CC(CO)Nc1nc(SCc2cccc(F)c2F)nc2[nH]cnc12 (stereo not drawn) [MVH-15]" assay_result=100
molecule="CC(CO)Nc1nc(SCc2cccc(F)c2F)nc2oncc12 (stereo not drawn) [MVH-24]" assay_result=100

----------
Measured pIC50 by item
Target: CXCR2 (Homo sapiens)
Construct: expressed in transfected cells
Sequence (P25025 1-360): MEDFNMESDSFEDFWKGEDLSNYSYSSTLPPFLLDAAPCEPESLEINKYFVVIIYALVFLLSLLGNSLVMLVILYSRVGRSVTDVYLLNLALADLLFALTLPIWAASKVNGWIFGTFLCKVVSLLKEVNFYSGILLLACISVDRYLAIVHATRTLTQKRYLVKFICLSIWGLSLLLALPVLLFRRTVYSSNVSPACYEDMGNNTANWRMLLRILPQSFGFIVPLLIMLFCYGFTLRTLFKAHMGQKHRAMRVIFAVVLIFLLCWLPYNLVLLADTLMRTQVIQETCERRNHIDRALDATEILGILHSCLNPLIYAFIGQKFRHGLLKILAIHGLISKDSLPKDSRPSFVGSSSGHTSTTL
Assay: NanoBRET-based G protein activation inhibition assay (REGA-SIGN Gαi1 dissociation) in HEK293A.CXCR2 cells
Format: cell-based
Details: CXCL1 at EC80; mean, n = 3
pIC50: −log10 of the molar value.
Readout label: pIC50

compound="CCCC(C)CSc1nc(NC(C)CO)c2nn[nH]c2n1 (stereo not drawn) [MVH-82]" assay_result="< 4.82"
compound="CC(CO)Nc1nc(SCc2cccc(F)c2F)nc2[nH]cnc12 (stereo not drawn) [MVH-15]" assay_result="< 4.82"
compound="CC(CO)Nc1nc(SCc2cccc(F)c2F)nc2ncsc12 (stereo not drawn) [MVH-22]" assay_result="< 4.82"
compound="CC(CO)Nc1nc(SCc2cccc(F)c2F)nc2cnccc12 (stereo not drawn) [MVH-3]" assay_result="< 4.82"
compound="CC(CCO)Nc1nc(SCc2cccc(F)c2F)nc2[nH]nnc12 (stereo not drawn) [MVH-33]" assay_result="< 4.82"
compound="CC(CO)Nc1nc(SCc2cccc(F)c2F)nc2oncc12 (stereo not drawn) [MVH-24]" assay_result=5.68

----------
Biological target: CXCR2 (Homo sapiens)
Construct: expressed in transfected cells
Assay: NanoBRET β-arrestin1 recruitment inhibition assay (NanoLux) in HEK293A cells
Assay type: cell-based
Conditions: CXCL8 at EC80; normalized to Imax of navarixin = 100%; n = 3
Measured Imax βarr1 (maximum observed inhibitory effect) by item
Readout label: Imax βarr1 (maximum observed inhibitory effect)

molecule="CC(CO)Nc1nc(SCc2cccc(F)c2F)nc2cnccc12 (stereo not drawn)" assay_result="90.8 ± 4.62%"
molecule="CCCC(C)CSc1nc(NC(C)CO)c2nn[nH]c2n1 (stereo not drawn)" assay_result=100%
molecule="CC(CO)Nc1nc(SCc2cccc(F)c2F)nc2oncc12 (stereo not drawn)" assay_result=100%

----------
Biological target: CXCR2 (Homo sapiens)
Construct: expressed in transfected cells
Sequence (P25025 1-360): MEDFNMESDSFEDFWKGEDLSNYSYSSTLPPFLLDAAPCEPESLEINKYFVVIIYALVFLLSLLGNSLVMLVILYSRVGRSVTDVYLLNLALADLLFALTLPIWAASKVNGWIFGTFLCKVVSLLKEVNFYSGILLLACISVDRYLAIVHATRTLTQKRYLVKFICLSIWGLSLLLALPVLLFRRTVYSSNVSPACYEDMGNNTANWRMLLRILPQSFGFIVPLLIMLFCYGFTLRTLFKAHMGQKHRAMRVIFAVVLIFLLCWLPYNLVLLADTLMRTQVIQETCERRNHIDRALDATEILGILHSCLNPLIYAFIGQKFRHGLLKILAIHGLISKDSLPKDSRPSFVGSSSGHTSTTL
Assay: NanoBRET β-arrestin1 recruitment inhibition assay (NanoLux) in HEK293A cells
Format: cell-based
Conditions: CXCL7 at EC80; mean, n = 3; read-out: IC50 βarr1
Readout label: IC50 (nM)

compound="CC(CCO)Nc1nc(SCc2cccc(F)c2F)nc2[nH]nnc12 (stereo not drawn) [MVH-33]" target_or_test_system="CXCR2 (Homo sapiens)" assay_result=340
compound="CC(CO)Nc1nc(SCc2cccc(F)c2F)nc2ncsc12 (stereo not drawn) [MVH-22]" target_or_test_system="CXCR2 (Homo sapiens)" assay_result=500
compound="CCCC(C)CSc1nc(NC(C)CO)c2nn[nH]c2n1 (stereo not drawn) [MVH-82]" target_or_test_system="CXCR2 (Homo sapiens)" assay_result=370
compound="CC(CO)Nc1nc(SCc2cccc(F)c2F)nc2oncc12 (stereo not drawn) [MVH-24]" target_or_test_system="CXCR2 (Homo sapiens)" assay_result=30
compound="CC(CO)Nc1nc(SCc2cccc(F)c2F)nc2[nH]cnc12 (stereo not drawn) [MVH-15]" target_or_test_system="CXCR2 (Homo sapiens)" assay_result=700
compound="CC(CO)Nc1nc(SCc2cccc(F)c2F)nc2cnccc12 (stereo not drawn) [MVH-3]" target_or_test_system="CXCR2 (Homo sapiens)" assay_result=160

----------
Target: CXCR2 (Homo sapiens, UniProt P25025)
Construct: expressed in transfected cells
Sequence (P25025 1-360): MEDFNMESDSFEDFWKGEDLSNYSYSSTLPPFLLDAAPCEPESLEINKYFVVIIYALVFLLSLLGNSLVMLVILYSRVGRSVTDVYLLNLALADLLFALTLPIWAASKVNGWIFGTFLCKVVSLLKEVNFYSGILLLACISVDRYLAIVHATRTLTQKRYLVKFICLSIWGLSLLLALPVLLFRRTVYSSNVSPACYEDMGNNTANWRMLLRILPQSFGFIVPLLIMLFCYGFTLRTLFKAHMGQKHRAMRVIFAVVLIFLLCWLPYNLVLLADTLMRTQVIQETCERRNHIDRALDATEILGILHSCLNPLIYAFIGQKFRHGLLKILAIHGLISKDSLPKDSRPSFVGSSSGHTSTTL
Assay: NanoBRET-based G protein activation inhibition assay (REGA-SIGN Gαi1 dissociation) in HEK293A.CXCR2 cells
Type: cell-based
Conditions: CXCL3 at EC80; normalized to Imax of navarixin = 100%; n = 3
Readout label: Imax Gαi1 (maximum observed inhibitory effect) (%)

compound="CC(CO)Nc1nc(SCc2cccc(F)c2F)nc2oncc12 (stereo not shown)" readout_unit=% measurement_qualifier== assay_result=100
compound="C[C@H](CO)Nc1nc(SCc2cccc(Cl)c2F)nc2[nH]c(=O)sc12 [AZ10397767, reference compound]" readout_unit=% measurement_qualifier== assay_result=98.8
compound="CC(CO)Nc1nc(SCc2cccc(F)c2F)nc2ncsc12 (stereo not shown)" readout_unit=% measurement_qualifier=< assay_result=50
compound="CC(CCO)Nc1nc(SCc2cccc(F)c2F)nc2[nH]nnc12 (stereo not shown)" readout_unit=% measurement_qualifier=< assay_result=50
compound="CCCC(C)CSc1nc(NC(C)CO)c2nn[nH]c2n1 (stereo not shown)" readout_unit=% measurement_qualifier=< assay_result=50
compound="CC(CO)Nc1nc(SCc2cccc(F)c2F)nc2nc(N)sc12 (stereo not shown)" readout_unit=% measurement_qualifier== assay_result=100
compound="CC(CO)Nc1nc(SCc2cccc(F)c2F)nc2[nH]cnc12 (stereo not shown)" readout_unit=% measurement_qualifier=< assay_result=50

----------
Biological target: CXCR2 (Homo sapiens)
Construct: expressed in transfected cells
Assay: NanoBRET β-arrestin1 recruitment inhibition assay (NanoLux) in HEK293A cells
Format: cell-based
Settings: CXCL1 at EC80; mean, n = 3; read-out: IC50 βarr1
Readout label: IC50 (nM)

molecule="CCCC(C)CSc1nc(NC(C)CO)c2nn[nH]c2n1 (stereo not drawn)" readout_label=IC50 assay_result=2130
molecule="CC(CO)Nc1nc(SCc2cccc(F)c2F)nc2oncc12 (stereo not drawn)" readout_label=IC50 assay_result=170
molecule="CC(CCO)Nc1nc(SCc2cccc(F)c2F)nc2[nH]nnc12 (stereo not drawn)" readout_label=IC50 assay_result=1460
molecule="CC(CO)Nc1nc(SCc2cccc(F)c2F)nc2cnccc12 (stereo not drawn)" readout_label=IC50 assay_result=980
molecule="CC(CO)Nc1nc(SCc2cccc(F)c2F)nc2[nH]cnc12 (stereo not drawn)" readout_label=IC50 assay_result=3510
molecule="CC(CO)Nc1nc(SCc2cccc(F)c2F)nc2ncsc12 (stereo not drawn)" readout_label=IC50 assay_result=2850
